- reportedConditions: in acetone, 293.2 K
endpointName: solubility (mole fraction)

moleculesmiles=O=c1c(-c2ccc(O)cc2)coc2cc(O)cc(O)c12 measuredvalue=0.00526

###

- reportedConditions: in water, 328.2 K
endpointName: solubility (mole fraction)

moleculesmiles=O=c1c(-c2ccc(O)cc2)coc2cc(O)cc(O)c12 measuredvalue=3.68e-07

###

- reportedConditions: in methanol, 298.2 K
endpointName: solubility (mole fraction)

moleculesmiles=O=c1c(-c2ccc(O)cc2)coc2cc(O)cc(O)c12 endpointname="solubility (mole fraction)" measuredvalue=0.00145

###

- reportedConditions: in water, 298.2 K
endpointName: solubility (mole fraction)

moleculesmiles=O=c1c(-c2ccc(O)cc2)coc2cc(O)cc(O)c12 measuredvalue=8.46e-08

###

- reportedConditions: in methanol, 288.2 K
endpointName: solubility (mole fraction)

moleculesmiles=O=c1c(-c2ccc(O)cc2)coc2cc(O)cc(O)c12 measuredvalue=0.000935

###

- reportedConditions: in n-hexane, 303.2 K
endpointName: solubility (mole fraction)

moleculesmiles=O=c1c(-c2ccc(O)cc2)coc2cc(O)cc(O)c12 measuredvalue=1.01e-05

###

- reportedConditions: in n-hexane, 323.2 K
endpointName: solubility (mole fraction)

moleculesmiles=O=c1c(-c2ccc(O)cc2)coc2cc(O)cc(O)c12 endpointname="solubility (mole fraction)" measuredvalue=1.3e-05

###

- reportedConditions: in chloroform, 323.2 K
endpointName: solubility (mole fraction)

moleculesmiles=O=c1c(-c2ccc(O)cc2)coc2cc(O)cc(O)c12 measuredvalue=4.7e-06

###

- reportedConditions: in water, 288.2 K
endpointName: solubility (mole fraction)

moleculesmiles=O=c1c(-c2ccc(O)cc2)coc2cc(O)cc(O)c12 measuredvalue=4.72e-08

###

- reportedConditions: in acetone, 298.2 K
endpointName: solubility (mole fraction)

moleculesmiles=O=c1c(-c2ccc(O)cc2)coc2cc(O)cc(O)c12 endpointname="solubility (mole fraction)" measuredvalue=0.00607

###

- reportedConditions: in acetone, 328.2 K
endpointName: solubility (mole fraction)

moleculesmiles=O=c1c(-c2ccc(O)cc2)coc2cc(O)cc(O)c12 endpointname="solubility (mole fraction)" measuredvalue=0.0089

###

- reportedConditions: in chloroform, 308.2 K
endpointName: solubility (mole fraction)

moleculesmiles=O=c1c(-c2ccc(O)cc2)coc2cc(O)cc(O)c12 measuredvalue=3.99e-06

###

- reportedConditions: in ethyl acetate, 288.2 K
endpointName: solubility (mole fraction)

moleculesmiles=O=c1c(-c2ccc(O)cc2)coc2cc(O)cc(O)c12 measuredvalue=0.00183

###

- reportedConditions: in acetone, 288.2 K
endpointName: solubility (mole fraction)

moleculesmiles=O=c1c(-c2ccc(O)cc2)coc2cc(O)cc(O)c12 endpointname="solubility (mole fraction)" measuredvalue=0.00477

###

- reportedConditions: in methanol, 328.2 K
endpointName: solubility (mole fraction)

moleculesmiles=O=c1c(-c2ccc(O)cc2)coc2cc(O)cc(O)c12 measuredvalue=0.00372

###

- reportedConditions: in water, 303.2 K
endpointName: solubility (mole fraction)

moleculesmiles=O=c1c(-c2ccc(O)cc2)coc2cc(O)cc(O)c12 endpointname="solubility (mole fraction)" measuredvalue=1.05e-07

###

- reportedConditions: in acetone, 313.2 K
endpointName: solubility (mole fraction)

moleculesmiles=O=c1c(-c2ccc(O)cc2)coc2cc(O)cc(O)c12 endpointname="solubility (mole fraction)" measuredvalue=0.00805

###

- reportedConditions: in acetone, 308.2 K
endpointName: solubility (mole fraction)

moleculesmiles=O=c1c(-c2ccc(O)cc2)coc2cc(O)cc(O)c12 measuredvalue=0.00754
